tested on: CAL-85-1; test: normalised response (% of control), CellTiter-Glo; higher = more viable cells (100 = DMSO, 0 = benzethonium chloride kill control); conditions: incubation time: 72 h
Parameter normalised response: see the listing below.

Molecule | normalised response, %
CCc1cnn2c(NCc3ccc[n+]([O-])c3)cc(N3CCCC[C@H]3CCO)nc12 [Dinaciclib] (1 nM) | 101
CC(C)n1nc(-c2ccc3oc(N)nc3c2)c2c(N)ncnc21 [INK128] (1 nM) | 96.7
NC1(c2ccc(-c3nc4ccn5c(=O)[nH]nc5c4cc3-c3ccccc3)cc2)CCC1 [MK-2206] (0.1 nM) | 98.7
O=NN(CCCl)C(=O)NC1CCCCC1 [Lomustine] (10 nM) | 95
CC[C@@H]1C(=O)N(C)c2cnc(Nc3ccc(C(=O)N[C@H]4CC[C@H](N5CCN(CC6CC6)CC5)CC4)cc3OC)nc2N1C(C)C [Volasertib] (1 nM) | 102
Cc1c(N)nc([C@H](CC(N)=O)NC[C@H](N)C(N)=O)nc1C(=O)N[C@H](C(=O)N[C@H](C)[C@@H](O)[C@H](C)C(=O)N[C@H](C(=O)NCCc1nc(-c2nc(C(=O)NCCC[S+](C)C)cs2)cs1)[C@@H](C)O)[C@@H](OC1OC(CO)C(O)C(O)C1OC1OC(CO)C(O)C(OC(N)=O)C1O)c1cnc[nH]1 (stereo partly specified) [Bleomycin] (1 nM) | 97.4
